B1: library; numbered along this chain (parent)
chain: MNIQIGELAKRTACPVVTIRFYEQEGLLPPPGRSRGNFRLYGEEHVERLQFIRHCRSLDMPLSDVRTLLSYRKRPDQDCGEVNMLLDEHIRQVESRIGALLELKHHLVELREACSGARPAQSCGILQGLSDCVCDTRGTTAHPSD

# Variants of: B1
# Test: sfGFP reporter fluorescence (15 h) (µM FITC); higher = stronger transcriptional activation
# Cond: library round: Round 1; ligand: 1 µM Pb
Threshold rule: sfGFP reporter fluorescence greater than or equal to 0.1 is condition met; below that, condition not met.

Solved entries:
* G36K P61N | condition met
* G128I D131C | condition met
* D131C P143R | condition not met

Please tell me: is the variant D64T L107C at or over 0.1 in terms of sfGFP reporter fluorescence?
condition met

Please tell me: is the variant D64K N83T R111L at or over 0.1 in terms of sfGFP reporter fluorescence?
condition met

Please tell me: is the variant M60L D64K R111L at or over 0.1 in terms of sfGFP reporter fluorescence?
condition met

Please tell me: is the variant C55V K104V at or over 0.1 in terms of sfGFP reporter fluorescence?
condition not met

Please tell me: is the variant K10A V46T C134T at or over 0.1 in terms of sfGFP reporter fluorescence?
condition not met

Please tell me: is the variant D64K R111D at or over 0.1 in terms of sfGFP reporter fluorescence?
condition met

Please tell me: is the variant `Q127S` at or over 0.1 in terms of sfGFP reporter fluorescence?
condition not met

Please tell me: is the variant P61N E94A at or over 0.1 in terms of sfGFP reporter fluorescence?
condition met

Please tell me: is the variant R33C K104V at or over 0.1 in terms of sfGFP reporter fluorescence?
condition not met

Please tell me: is the variant P61L L62I at or over 0.1 in terms of sfGFP reporter fluorescence?
condition not met

Please tell me: is the variant Q127A D135P at or over 0.1 in terms of sfGFP reporter fluorescence?
condition not met

Please tell me: is the variant K104V V108R at or over 0.1 in terms of sfGFP reporter fluorescence?
condition met

Please tell me: is the variant P61N D64A at or over 0.1 in terms of sfGFP reporter fluorescence?
condition met

Please tell me: is the variant I90L D135A at or over 0.1 in terms of sfGFP reporter fluorescence?
condition not met

Please tell me: is the variant D64K D135Y at or over 0.1 in terms of sfGFP reporter fluorescence?
condition met

Please tell me: is the variant C55L K104V at or over 0.1 in terms of sfGFP reporter fluorescence?
condition not met

Please tell me: is the variant K104V R111L at or over 0.1 in terms of sfGFP reporter fluorescence?
condition not met
